- Tested on: NCI-H460 lung
- Assay method text: NCI-60 one-dose screen, 48 h
- Measurement setup: 10 µM unless noted
About 83,000 compounds went through this panel and 20% of them were active in at least one assay; those are over-represented in the sample as a whole. Calls of active or inactive are those of the source. How the source made its calls: active means growth percent below 10; inactive means the rest.
One label from this list, please: active, inactive

(Q) Could you check what this test reported for Cc1ccc(/C=C/C(=O)c2ccc(-n3cc(CN4CCN(c5cc6c(cc5F)c(=O)c(C(=O)O)cn6C5CC5)CC4)nn3)cc2)cc1 ?
(A) inactive

(Q) Try this molecule next: COC(=O)C(Cc1ccccc1)NC(=O)c1ccc(NC(=O)c2[nH]c(C)c(Cl)c2Cl)c(OC(C)C)c1 (centres undefined)
(A) active

(Q) Try this molecule next: O=C(CCSc1nnc2n(Cc3ccccc3)c(=O)c3c4c(sc3n12)CCCC4)N1CCN(c2ccccc2)CC1
(A) inactive

(Q) Try this molecule next: COc1ccc(-c2ccc(-c3ccc(C(=N)N)nc3)s2)cc1Cl
(A) active

(Q) Try this molecule next: CCS/C(Nc1ccccc1)=C(\C#N)C(=O)Nc1ccc(OC)cc1
(A) inactive

(Q) Try this molecule next: CC(C)(C)c1cc(Cl)c(O)c(CNCCO)c1
(A) inactive

(Q) Try this molecule next: CSc1nn2c(-c3ccc4ccccc4c3)ccnc2c1C#N
(A) active

(Q) Try this molecule next: O=c1nc(-c2ccccc2)c2cc(-c3ccc(C(F)(F)F)nc3)ccc2[nH]1
(A) inactive

(Q) Try this molecule next: O=C(Nc1ccccc1N1CCCC1=O)c1oc2ccc(F)cc2c1-c1cnn(-c2ccccc2)c1
(A) inactive
